# STUDY_SYSTEM: CDK8/CycC (Homo sapiens)
# Construct: purchased Carna Biosciences
# Sequence (P49336 whole entry): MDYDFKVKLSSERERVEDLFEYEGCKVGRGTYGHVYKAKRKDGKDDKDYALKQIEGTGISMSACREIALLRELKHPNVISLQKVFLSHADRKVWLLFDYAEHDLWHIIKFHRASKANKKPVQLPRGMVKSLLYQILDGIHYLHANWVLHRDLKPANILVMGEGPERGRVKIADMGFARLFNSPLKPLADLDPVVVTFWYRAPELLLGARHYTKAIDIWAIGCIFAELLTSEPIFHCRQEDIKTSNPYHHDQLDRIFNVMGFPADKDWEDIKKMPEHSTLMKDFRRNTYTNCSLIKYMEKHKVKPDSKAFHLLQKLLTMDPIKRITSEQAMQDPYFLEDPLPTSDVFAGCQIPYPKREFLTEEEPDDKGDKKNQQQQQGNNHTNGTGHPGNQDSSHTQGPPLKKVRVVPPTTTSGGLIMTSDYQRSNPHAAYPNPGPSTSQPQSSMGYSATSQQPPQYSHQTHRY
# Sequence (P24863 whole entry partner): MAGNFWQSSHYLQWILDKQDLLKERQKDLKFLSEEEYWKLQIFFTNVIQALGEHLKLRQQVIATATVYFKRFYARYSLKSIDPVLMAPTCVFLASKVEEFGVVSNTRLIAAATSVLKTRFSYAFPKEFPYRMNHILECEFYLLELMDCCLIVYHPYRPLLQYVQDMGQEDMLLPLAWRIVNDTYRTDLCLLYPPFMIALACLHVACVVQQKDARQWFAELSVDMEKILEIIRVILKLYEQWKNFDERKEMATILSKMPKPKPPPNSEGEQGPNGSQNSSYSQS
# ASSAY_NOTES: CDK8 inhibitory activity (Kinase Tracer-236 / Eu-anti-GST fluorescence assay)
# Format: binding
# Set-up: concentration or dose not given beside the values
# EXPERIMENTAL_SETUP: test compound concentration given as '1 1.1.1\4' [sic]
RESULT_TYPE: Percent inhibition of CDK8 activity (%)
Dear colleague, please return just the value in %, with no unit written.

>>> observed_value("COCCNC(=O)c1ccc(Oc2sc(C(N)=O)c3c2-c2sncc2CC3)c(C)n1 [Example 25]")
104
>>> observed_value("COCCN(C)C(=O)c1ccc(Oc2sc(C(N)=O)c3c2-c2sncc2CC3)cc1 [Example 123]")
100

Consider the compound CN(C)C(=O)c1ccc(Oc2sc(C(N)=O)c3c2-c2sncc2CC3)cn1 [Example 91] . State its measured Percent inhibition of CDK8 activity (%).
90

For the compound Cc1c(Oc2sc(C(N)=O)c3c2-c2sncc2CC3)ccc[n+]1[O-] [Example 9] , give its measured Percent inhibition of CDK8 activity (%) value.
97

Check the records and state Percent inhibition of CDK8 activity (%) for Cc1nc(NC(=O)C2(O)CC2)ccc1Oc1sc(C(N)=O)c2c1-c1sncc1CC2 [Example 31]
103

====

# STUDY_SYSTEM: CDK8/CycC (Homo sapiens)
# Construct: purchased Carna Biosciences
# ASSAY_NOTES: CDK8 inhibitory activity (Kinase Tracer-236 / Eu-anti-GST fluorescence assay)
# Type: binding
# Parameters: concentration or dose not given beside the values
# EXPERIMENTAL_SETUP: test compound concentration given as '1 1.1.1\4' [sic]
RESULT_TYPE: Percent inhibition of CDK8 activity (%)
Give a bare numeral; the unit % is implied.

Look over these answered cases.
>>> observed_value("Cc1nc(C(N)=O)ccc1Oc1sc(C(N)=O)c2c1-c1sncc1CC2")
101
>>> observed_value("NC(=O)c1sc(Oc2ccc(S(F)(F)(F)(F)F)cc2)c2c1CCc1cnsc1-2")
102
>>> observed_value("COCCN(C)C(=O)c1ccc(Oc2sc(C(N)=O)c3c2-c2sncc2CC3)c(C)n1")
104

In one line, give reported Percent inhibition of CDK8 activity (%) of the entry `Cc1nc(NC(=O)C2CC2)ccc1Oc1sc(C(N)=O)c2c1-c1sncc1CC2` .
104

Supply reported Percent inhibition of CDK8 activity (%) belonging to this compound: `NC(=O)c1sc(Oc2ccc(C(=O)N3CC[C@@H](O)C3)nc2)c2c1CCc1cnsc1-2`
105

Indicate the recorded Percent inhibition of CDK8 activity (%) value for this compound: `NC(=O)c1sc(Oc2ccc(NC(=O)C3CC3)nc2)c2c1CCc1cnsc1-2`
101

Quickly give me recorded Percent inhibition of CDK8 activity (%) for `CCC(=O)Nc1ccc(Oc2sc(C(N)=O)c3c2-c2sncc2CC3)c(C)n1`
110

Fill in reported Percent inhibition of CDK8 activity (%) for this entry: `CC(=O)c1sc(Oc2cccnc2C)c2c1CCc1cnsc1-2`
97

Specify measured Percent inhibition of CDK8 activity (%) for `CCCSc1sc(C(N)=O)c2c1-c1sncc1CC2` .
98

====

// reported Percent inhibition of CDK19 activity (%) for each item listed
# STUDY_SYSTEM: CDC2L6/CycC (CDK19) (Homo sapiens)
# Construct: purchased Carna Biosciences Inc
# Sequence (Q9BWU1 whole entry): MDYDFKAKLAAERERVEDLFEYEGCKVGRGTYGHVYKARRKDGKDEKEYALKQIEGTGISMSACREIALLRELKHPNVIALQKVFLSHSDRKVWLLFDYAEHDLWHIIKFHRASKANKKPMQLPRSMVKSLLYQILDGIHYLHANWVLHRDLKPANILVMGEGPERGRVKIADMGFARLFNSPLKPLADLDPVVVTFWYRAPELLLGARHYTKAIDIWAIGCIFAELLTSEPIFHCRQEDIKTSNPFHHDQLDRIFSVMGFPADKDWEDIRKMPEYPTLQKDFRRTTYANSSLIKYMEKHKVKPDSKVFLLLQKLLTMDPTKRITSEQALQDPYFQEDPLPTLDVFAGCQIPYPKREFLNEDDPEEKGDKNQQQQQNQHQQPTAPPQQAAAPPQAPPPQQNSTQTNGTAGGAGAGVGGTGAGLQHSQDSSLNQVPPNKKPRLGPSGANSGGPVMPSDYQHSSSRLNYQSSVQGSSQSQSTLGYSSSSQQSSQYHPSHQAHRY
# Sequence (P24863 whole entry partner): as the sequence (P24863 whole entry partner) above
# ASSAY_NOTES: CDK19 inhibitory activity (Kinase Tracer-236 / Eu-anti-GST fluorescence assay)
# Type: binding
# Design: concentration or dose not given beside the values
# EXPERIMENTAL_SETUP: test compound concentration given as '1 1.1.1\4' [sic]
State just the number; it will be interpreted in %.

>>> observed_value("Cc1ncccc1Oc1sc(C#N)c2c1-c1sncc1CC2")
58
>>> observed_value("Cc1nc(C(N)=O)ccc1Oc1sc(C(N)=O)c2c1-c1sncc1CC2")
102
>>> observed_value("NC(=O)c1sc(Oc2ccc(C(F)(F)F)cc2)c2c1CCc1cnsc1-2")
102
>>> observed_value("N#Cc1cncc(Oc2sc(C(N)=O)c3c2-c2sncc2CC3)c1")
95
>>> observed_value("Cc1nc(N)ccc1Oc1sc(C(N)=O)c2c1-c1sncc1CC2")
100
>>> observed_value("NC(=O)c1sc(Oc2cccnc2)c2c1CCc1cnsc1-2")
97
>>> observed_value("NC(=O)c1sc(Oc2ccc(C(=O)NC3CC3)nc2)c2c1CCc1cnsc1-2")
100
>>> observed_value("CC(=O)N(C)c1ccc(Oc2sc(C(N)=O)c3c2-c2sncc2CC3)cn1")
97
>>> observed_value("N#Cc1ccc(Oc2sc(C(N)=O)c3c2-c2sncc2CC3)cc1")
100
>>> observed_value("COCC(=O)Nc1ccc(Oc2sc(C(N)=O)c3c2-c2sncc2CC3)cn1")
99

Give reported Percent inhibition of CDK19 activity (%) for `COCCN(C)C(=O)c1ccc(Oc2sc(C(N)=O)c3c2-c2sncc2CC3)cc1` (CDC2L6/CycC (CDK19) (Homo sapiens))
101

Provide Percent inhibition of CDK19 activity (%), tested on CDC2L6/CycC (CDK19) (Homo sapiens), for `NC(=O)c1sc(Oc2ccc(C(=O)O)nc2)c2c1CCc1cnsc1-2` .
97

Write Percent inhibition of CDK19 activity (%) of COCCNC(=O)c1ccc(Oc2sc(C(N)=O)c3c2-c2sncc2CC3)cn1 [Example 18] ; system used: CDC2L6/CycC (CDK19) (Homo sapiens)
100
